Just for reference, PubChem BioAssay (Tox21) is where these values come from.

# protocol text: qHTS assay for small molecule agonists of the antioxidant response element (ARE) signaling pathway - cell viability counter screen (AID 743203); further: nearly all actives have a fitted effect of over 55% in size
# measurement parameters: ARE-bla HepG2 viability, CellTiter-Glo luminescence, 16 h; series mostly up to 73.3 µM
Results filed as inconclusive are left out. Activity calls are given as the source filed them. The call rests on the fitted dose curve.
Outcomes: active, inactive

{"columns": ["compound", "qualitative label"],
 "data": [
  ["O=C(O)c1nc(Cl)c(Cl)c(Cl)c1Cl", "inactive"],
  ["CC(CC=O)c1ccccc1 (stereo not drawn)", "inactive"],
  ["COc1ccc(-c2nc3ccc(C4=NNC(=O)CC4C)cc3[nH]2)cc1 (stereo not drawn)", "inactive"],
  ["CCCCOC(=O)CCCCCCCC(=O)OCCCC", "inactive"],
  ["O=[N+]([O-])c1ccc(NCCO)c(OCCO)c1", "inactive"],
  ["Cc1ccc(N=Nc2c(O)c(C(=O)O)cc3ccccc23)c(S(=O)(=O)O)c1", "inactive"],
  ["CCOc1ccc(N)c([N+](=O)[O-])c1", "inactive"],
  ["COc1ccc2cccc(CCNC(C)=O)c2c1", "inactive"],
  ["CN(Cc1ccc(C(C)(C)C)cc1)Cc1cccc2ccccc12", "inactive"],
  ["O=C(c1ccc(F)cc1)C1CCN(CCn2c(=S)[nH]c3ccccc3c2=O)CC1", "inactive"],
  ["C[C@@H]1C[C@H]2[C@@H]3CCC4=CC(=O)C=C[C@]4(C)[C@@]3(F)[C@@H](O)C[C@]2(C)[C@@]1(O)C(=O)COC(=O)c1ccncc1", "inactive"],
  ["O[C@@H](COc1cccc2ncccc12)CN1CCN(C2c3ccccc3[C@@H]3[C@H](c4ccccc42)C3(F)F)CC1 (stereo partly drawn)", "active"],
  ["COCC(C)OC(C)=O (stereo not drawn)", "inactive"],
  ["CCCCC(CC)COC(=O)CCCCCCCCC(=O)OCC(CC)CCCC (stereo not drawn)", "inactive"],
  ["COc1ccc(C(=O)Nc2nc3ccccc3c(NCc3ccccc3)c2C#N)cc1", "inactive"],
  ["CNCCCCOc1ccccc1Cc1ccccc1", "active"],
  ["C/C=C(/C(=C/C)c1ccc(OC(C)=O)cc1)c1ccc(OC(C)=O)cc1", "inactive"],
  ["COS(=O)(=O)C(F)(F)F", "inactive"],
  ["CCC(C)(C)CC", "inactive"],
  ["O=C(CS)Nc1ccccc1", "inactive"],
  ["O=C(O)C1(C(=O)Nc2ccc(Cl)cc2Cl)CC1", "inactive"],
  ["CCN(CC)CCOC(=O)C(c1ccccc1)C1CCCCC1 (stereo not drawn)", "inactive"],
  ["CCn1cc(C(=O)O)c(=O)c2cnc(N3CCNCC3)nc21", "inactive"],
  ["CN(C)c1ccc(CCO)cc1", "inactive"],
  ["Cc1cccc(Nc2ccccc2)c1", "inactive"],
  ["CCNc1cc(O)ccc1C", "inactive"],
  ["CC(C)=CCC/C(C)=C/CC/C(C)=C/CO", "inactive"],
  ["CN(C)c1ccc(C(c2ccccc2)c2ccc(N(C)C)cc2)cc1", "inactive"],
  ["C=C(C)C(=O)OCCO", "inactive"],
  ["Cc1ncc(CO)c(C=O)c1O", "inactive"],
  ["CCCCCCCCO[C@@H]1O[C@H](CO)[C@@H](O)[C@H](O)[C@H]1O", "inactive"],
  ["Cc1cccc(C)c1NC(=O)CN(CC(=O)O)CC(=O)O", "inactive"],
  ["CC/C=C\\CCOC(=O)CC", "inactive"],
  ["CCCCCCCCCCCC(=O)OC[C@@H](O)[C@H]1OC[C@H](OCCO)[C@H]1OCCO", "inactive"],
  ["CCN(CC)c1ccc2c(-c3ccccc3C(=O)O)c3ccc(=[N+](CC)CC)cc-3oc2c1", "inactive"],
  ["CCCCCC[C@@H](O)C/C=C\\CCCCCCCC(=O)OC", "inactive"],
  ["CCCCCCCCCc1ccc(OCCOCCO)cc1", "inactive"],
  ["Cc1c(N)cccc1[N+](=O)[O-]", "inactive"],
  ["CCc1cc(C2=C(C(=O)O)N(c3ccccc3C(F)(F)F)S(=O)(=O)c3ccccc32)cc2c1OCO2", "active"],
  ["O=S(c1cc(Cl)cc(Cl)c1O)c1cc(Cl)cc(Cl)c1O", "active"],
  ["CCC(=O)O[C@]1(C(=O)CCl)[C@@H](C)C[C@H]2[C@@H]3CCC4=CC(=O)C=C[C@]4(C)[C@@]3(F)[C@@H](O)C[C@@]21C", "inactive"],
  ["CCN(CC)c1ccc(C(=C2C=CC(=[N+](CC)CC)C=C2)c2cc(S(=O)(=O)O)ccc2S(=O)(=O)[O-])cc1", "inactive"],
  ["CCCCNc1ccc(C(=O)OCCOCCOCCOCCOCCOCCOCCOCCOCCOC)cc1", "inactive"]
]}
